Please go through the items and note down their Ki.
assay system: full-length ATR (Homo sapiens (Human))
assay notes: ATR Inhibition Assay (radioactive-phosphate incorporation)
Format: biochemical
experimental context: read-out: ATR Ki

Input line: # lookup: Ki of CN(C)C(=O)c1ccc(-c2cnc(N)c(-c3nc4ccccc4[nH]3)n2)cc1 [Compound I-124]
Output line: 0.01 to 0.1 µM

Input line: Cool, now Nc1ncc(-c2ccc(C(=O)N3CCCCC3)cc2)nc1C(=O)Nc1ccccc1 [Compound I-78]
Output line: 0.01 to 0.1 µM

Input line: Now give it for CC(C)S(=O)(=O)c1ccc(-c2cnc(N)c(-c3nnc(-c4ccc(C(N)C(F)(F)F)cc4)o3)n2)cc1 (stereo in doubt) [IA-325] too.
Output line: 0.01 to 0.1 µM

Input line: Also need Nc1ncc(-c2cccc(C(=O)N3CCCC3)c2)nc1C(=O)Nc1ccccc1 [Compound I-63] , thanks.
Output line: 0.1 to 5 µM

Input line: # repeat for CNCc1ccc(-c2nnc(-c3nc(-c4ccc(S(=O)(=O)C(C)C)c(C#N)c4)cnc3N)o2)cc1 [IA-295]
Output line: ≤ 0.01 µM

Input line: Entry to check: CN(C)C(=O)c1ccc(-c2cnc(N)c(-c3nnc(-c4ccccc4OCCNC(=O)OC(C)(C)C)o3)n2)cc1 [IA-175]
Output line: ≤ 0.01 µM

Input line: Another: CC(C)S(=O)(=O)c1ccc(-c2cnc(N)c(-c3nnc(NC(=O)[C@@H]4CCCCN4)o3)n2)cc1 [IA-211]
Output line: 0.1 to 5 µM

Input line: Another compound to check: CN(C)CCS(=O)(=O)c1ccc(-c2cnc(N)c(-c3nnc(-c4ccccc4)o3)n2)cc1 [IA-169]
Output line: ≤ 0.01 µM

Input line: For N#Cc1cc(C(=O)N2CCCNCC2)ccc1-c1cnc(N)c(-c2nnc(-c3ccccc3)s2)n1 [IVA-2] then?
Output line: ≤ 0.01 µM

* * *

For each record, write down the corresponding pKi.
assay system: full-length ATR (Homo sapiens (Human))
assay notes: ATR Inhibition Assay (radioactive-phosphate incorporation)
Assay type: biochemical
experimental context: read-out: ATR Ki
pKi: −log10 of the molar value.

Input line: What pKi appears in the records for this compound with full-length ATR (Homo sapiens (Human))? "CS(=O)(=O)Nc1cccc(-c2cnc(N)c(-c3nnc(-c4ccccc4)o3)n2)c1"
Output line: 7.00 to 8.00

Input line: Same again, this time with "Nc1ncc(-c2cccc(C(=O)N3CCC(CO)CC3)c2)nc1C(=O)Nc1ccccc1"
Output line: 5.30 to 7.00

Input line: Do the same for "CN(C)C1CCN(C(=O)c2ccc(-c3cnc(N)c(C(=O)Nc4ccccc4)n3)cc2)CC1" please
Output line: 7.00 to 8.00

Input line: Try the compound "CNCc1ccc(-c2nnc(-c3nc(-c4ccc(S(=O)(=O)C(C)C)cc4C#N)cnc3N)o2)cc1"
Output line: ≥ 8.00

Input line: // query: "CC(=O)Nc1ccccc1-c1cnc(N)c(-c2nnc(-c3ccccc3)o2)n1"
Output line: 7.00 to 8.00

Input line: Would you kindly repeat that for "CC(=O)Nc1nnc(-c2nc(-c3ccc(C(=O)N(C)C)cc3)cnc2N)o1" ?
Output line: 5.30 to 7.00

Input line: And then "NC(=O)c1ccc(-c2cnc(N)c(-c3nnc(-c4ccccc4)o3)n2)cc1" , what is it?
Output line: 7.00 to 8.00

Input line: Okay, and "Nc1ncc(-c2ccncc2)nc1-c1nnc(-c2ccccc2)o1" ?
Output line: ≥ 8.00

Input line: Next record, please: "CC(C)S(=O)(=O)c1ccc(-c2cnc(N)c(-c3nnc(C4=CCNCC4)o3)n2)cc1"
Output line: 7.00 to 8.00

Input line: And the next one, "CNCc1ccc(-c2nnc(-c3nc(-c4ccc(S(=O)(=O)C(C)C)nc4)cnc3N)o2)cc1" ?
Output line: ≥ 8.00

Input line: Another compound to check: "CN(C)C1CCN(C(=O)c2c(F)cc(-c3cnc(N)c(-c4nnc(-c5ccccc5)o4)n3)cc2F)CC1"
Output line: 7.00 to 8.00

Input line: Moving on to "CC(C)S(=O)(=O)c1ccc(-c2cnc(N)c(-c3nnc(-c4ccc(CNCCO)cc4)o3)n2)cc1"
Output line: ≥ 8.00

Input line: Query Nc1ncc(-c2cccnc2)nc1C(=O)Nc1ccc2[nH]ccc2c1 [Compound V-17] next
Output line: 7.00 to 8.00

Input line: # repeat for CC(C)S(=O)(=O)c1ccc(-c2cnc(N)c(-c3nnc(C(=O)NC4CCCCC4N)o3)n2)cc1 (centres unmarked)
Output line: 5.30 to 7.00

* * *

Exercise: state measured pKi for each of the molecules provided.
assay system: full-length ATR (Homo sapiens (Human), UniProt Q13535)
Sequence (Q13535 whole entry): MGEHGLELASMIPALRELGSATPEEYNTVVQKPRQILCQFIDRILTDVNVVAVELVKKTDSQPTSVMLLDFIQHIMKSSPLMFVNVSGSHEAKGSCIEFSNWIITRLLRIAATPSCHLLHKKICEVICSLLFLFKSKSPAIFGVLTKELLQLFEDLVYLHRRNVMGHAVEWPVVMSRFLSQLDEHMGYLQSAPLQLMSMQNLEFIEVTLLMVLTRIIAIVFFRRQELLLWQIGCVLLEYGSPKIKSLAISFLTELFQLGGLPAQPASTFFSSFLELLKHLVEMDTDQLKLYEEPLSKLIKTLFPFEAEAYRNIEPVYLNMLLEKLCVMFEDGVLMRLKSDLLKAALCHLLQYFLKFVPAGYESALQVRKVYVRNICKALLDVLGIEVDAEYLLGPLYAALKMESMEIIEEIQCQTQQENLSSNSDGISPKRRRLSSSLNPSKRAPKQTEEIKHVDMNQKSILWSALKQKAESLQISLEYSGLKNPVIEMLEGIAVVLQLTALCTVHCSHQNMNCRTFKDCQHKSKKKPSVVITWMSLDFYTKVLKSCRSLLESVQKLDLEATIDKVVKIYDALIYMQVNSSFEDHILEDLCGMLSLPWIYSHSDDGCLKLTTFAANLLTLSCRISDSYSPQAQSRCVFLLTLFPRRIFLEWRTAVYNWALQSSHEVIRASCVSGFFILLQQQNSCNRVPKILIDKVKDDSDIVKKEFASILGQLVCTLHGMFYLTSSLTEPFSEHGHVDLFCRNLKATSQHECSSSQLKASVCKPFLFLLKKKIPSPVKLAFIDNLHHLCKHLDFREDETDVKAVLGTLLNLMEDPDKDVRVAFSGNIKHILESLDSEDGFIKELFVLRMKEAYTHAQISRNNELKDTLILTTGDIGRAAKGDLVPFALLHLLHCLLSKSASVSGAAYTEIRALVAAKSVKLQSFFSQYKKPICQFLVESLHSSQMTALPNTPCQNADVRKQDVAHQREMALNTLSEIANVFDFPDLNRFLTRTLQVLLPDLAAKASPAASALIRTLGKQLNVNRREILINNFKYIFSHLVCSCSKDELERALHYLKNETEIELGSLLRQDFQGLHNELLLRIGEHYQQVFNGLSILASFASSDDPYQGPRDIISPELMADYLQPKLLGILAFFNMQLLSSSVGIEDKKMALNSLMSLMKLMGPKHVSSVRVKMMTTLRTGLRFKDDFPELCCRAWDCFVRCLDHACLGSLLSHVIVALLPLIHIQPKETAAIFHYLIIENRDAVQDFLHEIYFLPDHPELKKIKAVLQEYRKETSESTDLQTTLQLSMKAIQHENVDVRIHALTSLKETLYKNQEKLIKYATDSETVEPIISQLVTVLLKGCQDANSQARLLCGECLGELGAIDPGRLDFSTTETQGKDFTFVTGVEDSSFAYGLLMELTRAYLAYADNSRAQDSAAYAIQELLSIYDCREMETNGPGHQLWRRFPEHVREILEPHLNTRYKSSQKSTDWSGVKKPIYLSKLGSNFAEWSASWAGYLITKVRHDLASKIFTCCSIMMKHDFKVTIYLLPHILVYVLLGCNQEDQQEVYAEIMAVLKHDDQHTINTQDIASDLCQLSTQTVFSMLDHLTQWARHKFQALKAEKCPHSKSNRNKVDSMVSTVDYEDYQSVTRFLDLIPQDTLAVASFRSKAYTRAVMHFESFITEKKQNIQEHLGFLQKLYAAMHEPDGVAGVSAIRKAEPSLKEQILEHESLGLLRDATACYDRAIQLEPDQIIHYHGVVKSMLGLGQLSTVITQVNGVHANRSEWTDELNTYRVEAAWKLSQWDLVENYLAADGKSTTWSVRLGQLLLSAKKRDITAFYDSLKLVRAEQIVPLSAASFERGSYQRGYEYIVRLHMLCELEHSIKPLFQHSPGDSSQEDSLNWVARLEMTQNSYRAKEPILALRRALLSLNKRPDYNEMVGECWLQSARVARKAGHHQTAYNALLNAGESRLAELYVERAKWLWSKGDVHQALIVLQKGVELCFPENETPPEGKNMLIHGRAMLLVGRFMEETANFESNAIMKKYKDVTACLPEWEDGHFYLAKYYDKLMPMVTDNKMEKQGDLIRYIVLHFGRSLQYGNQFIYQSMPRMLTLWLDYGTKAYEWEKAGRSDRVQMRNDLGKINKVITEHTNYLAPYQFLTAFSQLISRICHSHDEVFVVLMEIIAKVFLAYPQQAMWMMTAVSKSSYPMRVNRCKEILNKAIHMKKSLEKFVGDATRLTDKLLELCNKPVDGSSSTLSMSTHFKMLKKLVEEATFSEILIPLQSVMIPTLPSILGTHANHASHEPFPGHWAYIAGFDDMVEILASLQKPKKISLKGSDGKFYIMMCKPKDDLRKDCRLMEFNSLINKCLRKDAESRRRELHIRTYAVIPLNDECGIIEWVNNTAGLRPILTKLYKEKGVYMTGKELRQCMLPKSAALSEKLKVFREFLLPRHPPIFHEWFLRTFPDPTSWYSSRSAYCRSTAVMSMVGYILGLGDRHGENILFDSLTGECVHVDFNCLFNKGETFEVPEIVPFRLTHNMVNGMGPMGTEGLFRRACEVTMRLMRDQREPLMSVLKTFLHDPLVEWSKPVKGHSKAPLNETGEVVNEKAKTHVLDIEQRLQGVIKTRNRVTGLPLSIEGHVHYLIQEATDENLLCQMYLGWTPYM
assay notes: ATR Inhibition Assay (radioactive-phosphate incorporation)
Format: biochemical
experimental context: read-out: ATR Ki
pKi: −log10 of the molar value.

Input line: Which measured pKi value corresponds to "CCn1cc(-c2cnc(N)c(-c3nnc(-c4ccccc4)o3)n2)cn1" ?
Output line: 7.00 to 8.00

Input line: Entry to check: "CC(C)S(=O)(=O)c1ccc(-c2cnc(N)c(-c3nnc(-c4ccc(CNCC(F)F)s4)o3)n2)cc1"
Output line: 7.00 to 8.00

Input line: Follow-up item: CC(N)c1cccc(-c2nnc(-c3nc(-c4ccc(S(=O)(=O)C(C)C)cc4)cnc3N)o2)c1 (stereo not drawn)
Output line: ≥ 8.00

Input line: Lookup "Nc1ncc(-c2ccc3ncccc3c2)nc1-c1nnc(-c2ccccc2)o1"
Output line: 7.00 to 8.00

Input line: Can you handle "Nc1ncc(-c2cccnc2)nc1-c1noc(-c2ccccc2)n1" next?
Output line: 7.00 to 8.00

Input line: Ok, now "CS(=O)(=O)c1ccc(-c2cnc(N)c(-c3nc4ccccc4[nH]3)n2)cc1"
Output line: 7.00 to 8.00

Input line: Could you do the same for "CC(C)S(=O)(=O)c1ccc(-c2cnc(N)c(-c3nnc(-c4ccc(CNC[C@H](C)O)cc4F)o3)n2)cc1" , please?
Output line: ≥ 8.00

Input line: // query: "N#Cc1cccc(-c2cnc(N)c(C(=O)Nc3ccccc3)n2)c1"
Output line: 5.30 to 7.00

Input line: What do we get for "CN(C)CCCOc1ccc(-c2cnc(N)c(-c3nnc(-c4ccccc4)o3)n2)cn1" ?
Output line: 5.30 to 7.00

* * *

assay system: full-length ATR (Homo sapiens (Human), UniProt Q13535)
assay notes: ATR Inhibition Assay (radioactive-phosphate incorporation)
Format: biochemical
experimental context: read-out: ATR Ki
I'd appreciate it if you could supply Ki values for the items below.

Input line: // Ki lookup, key: "Nc1ncc(-c2cccc3ccsc23)nc1-c1nnc(-c2ccccc2)o1"
Output line: 0.01 to 0.1 µM

Input line: Ok, now "N#Cc1cc(C(=O)N2CCCNCC2)ccc1-c1cnc(N)c(-c2nnc(-c3ccccc3)o2)n1"
Output line: ≤ 0.01 µM

Input line: Then Cc1ccc2nc(-c3nc(-c4ccc(C(=O)N5CCN(C)CC5)cc4)cnc3N)[nH]c2c1 [III-4] ?
Output line: 0.01 to 0.1 µM

Input line: Further, for "CN(C)CCN(C)C(=O)c1cccc(-c2cnc(N)c(C(=O)Nc3ccccc3)n2)c1" ?
Output line: 0.1 to 5 µM

Input line: Please do the same for "CC(C)S(=O)(=O)c1ccc(-c2cnc(N)c(-c3nnc(-c4ccc([C@H](C)N)cc4)o3)n2)cc1" as well.
Output line: ≤ 0.01 µM

Input line: Then what about the molecule "COCCN(C)C(=O)c1cccc(-c2cnc(N)c(C(=O)Nc3ccccc3)n2)c1" ?
Output line: 0.01 to 0.1 µM

Input line: Request: "COCCNCc1ccc(-c2nnc(-c3nc(-c4ccc(S(=O)(=O)C(C)C)cc4)cnc3N)o2)cc1"
Output line: ≤ 0.01 µM

Input line: What do we get for "Cc1ccccc1-c1nnc(-c2nc(-c3ccc(C(=O)N(C)C)cc3)cnc2N)o1" ?
Output line: ≤ 0.01 µM

Input line: What do you get for "Nc1ncc(-c2cccc(O)c2)nc1-c1nc2ccccc2[nH]1" ?
Output line: 0.1 to 5 µM

Input line: Now consider "CC(C)S(=O)(=O)c1ccc(-c2cnc(N)c(-c3nnc(N4CCC(N)CC4)o3)n2)cc1" and answer again.
Output line: 0.1 to 5 µM

Input line: Further, for CCC(C)S(=O)(=O)c1ccc(-c2cnc(N)c(-c3nnc(-c4ccc(CNC)cc4)o3)n2)cc1 (centres unmarked) ?
Output line: ≤ 0.01 µM

Input line: Repeat for the following molecule: "CN(C)C(=O)c1ccc(-c2cnc(N)c(-c3nnc(NC(=O)c4ccccc4)o3)n2)cc1"
Output line: 0.1 to 5 µM

Input line: Okay, and Cn1c(NC(=O)c2nc(-c3ccc(C(=O)N4CCCNCC4)cc3)cnc2N)nc2ccccc21 [Compound V-25] ?
Output line: 0.1 to 5 µM

Input line: What do you get for "CC(=O)c1ccc(-c2cnc(N)c(-c3nnc(-c4ccccc4)o3)n2)cc1" ?
Output line: 0.01 to 0.1 µM

Input line: And "Nc1ncc(-c2cccnc2)nc1C(=O)Nc1cccc(F)c1" ?
Output line: 0.01 to 0.1 µM

Input line: // query: CNCc1ccc(-c2nnc(-c3nc(-c4ccc(S(=O)(=O)C5CCOC5)cc4)cnc3N)o2)c(F)c1 (centres unmarked)
Output line: ≤ 0.01 µM

Input line: Now this one: "CS(=O)(=O)c1ccc(-c2cnc(N)c(C(=O)Nc3ccc4cc[nH]c4n3)n2)cc1"
Output line: ≤ 0.01 µM

Values from patent US10479784B2
